Tested on: EAAT2
Test: Spinal cord organotypic culture screen for EAAT2 protein expression (slot blot)
Type: cell-based, rat
Conditions: follow-up dose response analysis, spinal cord organotypic cultures
readout.name: EC50 (µM)
Just the number please, in µM, no unit attached.

Request: Recall the recorded EC50 for `CO/N=C(\C(=O)N[C@@H]1C(=O)N2C(C(=O)O)=C(CSc3nc(=O)c(=O)[nH]n3C)CS[C@H]12)c1csc(N)n1` with EAAT2 and state it.
Result: 3.5
